Here, each record is paired with measured melting point data.

Worked examples, 6 molecules total:
> print(dat)
                                   molecule     value.kind  recorded.measurement
1  N#Cc1cccc(CN2CCN(c3ccc(NC(=O)c4ccc(Cl)cc4-c4ccc(C(F)(F)F)cc4)cc3)CC2)c1 [Example 10]  melting point         164 to 165 °C
2  O=C(Nc1ccc(N2CCN(Cc3ccc4c(c3)OCO4)CC2)cc1)c1ccccc1-c1ccc(C(F)(F)F)cc1 [Example 48]  melting point         189 to 191 °C
3  COc1cccc(C(=O)Nc2ccc(N3CCN(Cc4cccc(C#N)c4)CC3)cc2)c1OCCC1CCCCC1 [Example 31]  melting point         102 to 104 °C
4  O=C(Nc1ccc(N2CCN(Cc3cccs3)CC2)cc1)c1ccccc1-c1ccc(C(F)(F)F)cc1 [Example 70]  melting point         181 to 183 °C
5  O=C(Nc1ccc(N2CCN(CCCO)CC2)cc1)c1ccccc1-c1ccc(C(F)(F)F)cc1 [Example 44]  melting point         208 to 210 °C
6  COc1cccc(C(=O)Nc2ccc(N3CCN(Cc4cccc(C#N)c4)CC3)cc2)c1-c1ccc(C(C)C)cc1 [Example 3]  melting point                179 °C

-- ask Given Cc1ccc(-c2ccccc2C(=O)Nc2ccc(N3CCN(Cc4cccc(C#N)c4)CC3)cc2)cc1C , state its recorded melting point.
-- reply 140 to 144 °C

-- ask If you can, please state the reported melting point value of N#Cc1cccc(CN2CCC(c3ccc(NC(=O)c4ccccc4-c4ccc(C(F)(F)F)cc4)cc3)CC2)c1 [Example 84] .
-- reply 124 to 126 °C

-- ask Dear colleague, I am looking for the recorded melting point of the following molecule: O=C(Nc1ccc(N2CCN(Cc3ccco3)CC2)cc1)c1ccccc1-c1ccc(C(F)(F)F)cc1 [Example 67]
-- reply 173 to 175 °C

-- ask Could you tell me which melting point is on file for COc1cccc(C(=O)Nc2ccc(N3CCN(Cc4ccc[nH]4)CC3)cc2)c1-c1ccc(C(C)C)cc1 [Example 68] ?
-- reply 195 to 197 °C

====

Value Kind: melting point

Would you please look over these solved cases?
> print(dat)
                                   molecule  recorded.measurement
1  N#Cc1cccc(S(=O)(=O)N2CCN(c3ccc(NC(=O)c4ccccc4-c4ccc(C(F)(F)F)cc4)cc3)CC2)c1                223 °C
2  COc1ccc(-c2ccccc2C(=O)Nc2ccc(N3CCN(Cc4cccc(C#N)c4)CC3)cc2)cc1OC         116 to 120 °C
3  CS(=O)(=O)N1CCN(c2ccc(NC(=O)c3ccccc3-c3ccc(C(F)(F)F)cc3)cc2)CC1         254 to 256 °C
4  COc1cccc(C(=O)Nc2ccc(N3CCN(Cc4cccc(C#N)c4)CC3)cc2)c1-c1ccc(C(F)(F)F)cc1         215 to 217 °C
5  COc1cccc(C(=O)Nc2ccc(N3CCN(Cc4cccc(C#N)c4)CC3)cc2)c1OCc1ccc(C(F)(F)F)cc1       118 to 119.5 °C
6  N#Cc1cccc(C(=O)N2CCN(c3ccc(NC(=O)c4ccccc4-c4ccc(C(F)(F)F)cc4)cc3)CC2)c1       178.5 to 180 °C

-- ask Fill blank: measured melting point of the molecule N#Cc1cccc(CN2CCN(c3ccc(NC(=O)c4ccccc4-c4ccccn4)cc3)CC2)c1 is ____.
-- reply 169 to 171 °C

====

Value Kind: melting point

Worked set:
> print(dat)
                                   molecule  recorded.measurement
1  N#Cc1cccc(CN2CCN(c3ccc(NC(=O)c4ccccc4-c4ccccc4)cc3)CC2)c1 (hydrate or solvate)         169 to 171 °C
2  COc1cccc(C(=O)Nc2ccc(N3CCN(Cc4cccc(-c5nc(C)no5)c4)CC3)cc2)c1-c1ccc(C(C)C)cc1         180 to 182 °C
3  Cc1ccc(C(=O)Nc2ccc(N3CCN(Cc4cccc(C#N)c4)CC3)cc2)c(-c2ccc(C(F)(F)F)cc2)c1         166 to 168 °C
4  COc1cccc(C(=O)Nc2ccc(N3CCN(Cc4cccc(C#N)c4)CC3)cc2)c1OCc1ccc(F)cc1         118 to 120 °C

-- ask Requested field: melting point. Item: COc1cccc(C(=O)Nc2ccc(N3CCN(Cc4cccc(C#N)c4)CC3)cc2)c1OCCc1ccccc1
-- reply 140 to 142 °C

-- ask Sample CCCN1CCN(c2ccc(NC(=O)c3ccccc3-c3ccc(C(F)(F)F)cc3)cc2)CC1 — what was its melting point?
-- reply 207 to 209 °C

-- ask Consider the molecule O=C(Nc1ccc(N2CCN(Cc3cnccn3)CC2)cc1)c1ccccc1-c1ccc(C(F)(F)F)cc1 and give its measured melting point.
-- reply 183 to 185 °C

-- ask Param item = O=C(Nc1ccc(N2CCN(Cc3ccncc3)CC2)cc1)c1ccccc1-c1ccc(C(F)(F)F)cc1 ; retrieve measured melting point.
-- reply 194 to 196 °C

-- ask Please look up its melting point: Cc1ccc(-c2ccc(C(F)(F)F)cc2)c(C(=O)Nc2ccc(N3CCN(Cc4cccc(C#N)c4)CC3)cc2)c1
-- reply 120 to 124 °C

-- ask # lookup: melting point of COc1cccc(CN2CCN(c3ccc(NC(=O)c4ccccc4-c4ccc(C(F)(F)F)cc4)cc3)CC2)c1 (hydrate or solvate)
-- reply 168 to 170 °C

-- ask # get_value(readout='melting point', item= O=C(CN1CCN(c2ccc(NC(=O)c3ccccc3-c3ccc(C(F)(F)F)cc3)cc2)CC1)NCc1cccc(-c2ccccc2)c1 )
-- reply 165 to 167 °C

-- ask For COc1ccc(-c2ccccc2C(=O)Nc2ccc(N3CCN(Cc4cccc(C#N)c4)CC3)cc2)cc1 , what is its reported melting point?
-- reply 124 to 128 °C

-- ask Find the recorded melting point belonging to N#Cc1cccc(CN2CCN(c3ccc(NC(=O)c4ccccc4-c4ncc(-c5ccccc5)o4)cc3)CC2)c1 (hydrate or solvate) and report it.
-- reply 209 to 211 °C

-- ask Given COc1cccc(C(=O)Nc2ccc(N3CCN(Cc4cccc(C#N)c4)CC3)cc2)c1OCCCc1ccccc1 , state its recorded melting point.
-- reply 134 to 136 °C

-- ask I would be grateful if you could share the reported melting point for CCc1ccc(-c2ccccc2C(=O)Nc2ccc(N3CCN(Cc4cccc(C#N)c4)CC3)cc2)cc1 .
-- reply 118 to 122 °C

-- ask Reported melting point for N#Cc1cccc(CN2CCN(c3ccc(NC(=O)c4ccccc4Oc4ccccc4)cc3)CC2)c1 (hydrate or solvate) : what is it?
-- reply 133 to 134 °C

-- ask Which melting point value is on record for CC(=O)c1cccc(CN2CCN(c3ccc(NC(=O)c4ccccc4-c4ccc(C(F)(F)F)cc4)cc3)CC2)c1 ?
-- reply 181 to 183 °C

-- ask Given O=C(Nc1ccc(N2CCN(Cc3ccccn3)CC2)cc1)c1ccccc1-c1ccc(C(F)(F)F)cc1 (hydrate or solvate) , state its recorded melting point.
-- reply 168 to 170 °C

-- ask So what's the measured melting point for this one? CC(C)c1ccc(-c2cc(Cl)ccc2C(=O)Nc2ccc(N3CCN(Cc4cccc(C#N)c4)CC3)cc2)cc1
-- reply 188 to 190 °C

-- ask Quick check: melting point of N#Cc1cccc(CN2CCN(c3ccc(NC(=O)c4ccccc4-c4ccc(F)cc4)cc3)CC2)c1 ?
-- reply 200 to 202 °C

-- ask Would you mind telling me what melting point value was observed for Cc1ccc(C(=O)Nc2ccc(N3CCN(Cc4ccc[nH]4)CC3)cc2)c(-c2ccc(C(F)(F)F)cc2)c1 ?
-- reply 196 to 198 °C

-- ask Any idea what melting point was measured for NC(=O)c1cccc(CN2CCN(c3ccc(NC(=O)c4ccccc4-c4ccc(C(F)(F)F)cc4)cc3)CC2)c1 ?
-- reply 199 to 201 °C

-- ask I would be grateful if you could share the reported melting point for N#Cc1cccc(CN2CCN(c3cccc(NC(=O)c4ccccc4-c4ccc(C(F)(F)F)cc4)c3)CC2)c1 .
-- reply 170 to 172 °C

-- ask What does the record list as melting point for O=C(Nc1ccc(N2CCN(Cc3ccc(F)cc3)CC2)cc1)c1ccccc1-c1ccc(C(F)(F)F)cc1 ?
-- reply 198 to 200 °C

-- ask What does the record list as melting point for O=C(Nc1ccc(N2CCN(Cc3cccc(F)c3)CC2)cc1)c1ccccc1-c1ccc(C(F)(F)F)cc1 (hydrate or solvate) ?
-- reply 189 to 190.5 °C

====

# Tested on: apoB-100
# Protocol Text: Inhibition of apoB-100 secretion by primary human hepatocytes (35S-methionine labelling, SDS PAGE, Phosphorimager)
# Format: cell-based
# Measurement Parameters: 8 hours incubation, tested from 1 μM to 1.6 nM, secretion of radiolabeled apoB-100, untreated cells as controls
# Experimental: The ability of the compounds of the invention to inhibit the production of apoB-100 by human hepatocytes in vitro is determined using primary human hepatocytes as a model system. […] Primary human hepatocytes were seeded at 50 000 cells/well in 96 well plates. […] Production of radiolabeled apoB-100 and apoA-1 (used as a selectivity control) was quantified by analysis of supermatants using SDS AGE and exposure of gels onto Phosphorimager screens. […]
Measured IC50 values are reported for all entries that follow.
Respond with the bare value in nM.

Before answering, review these 3 worked examples.
> print(dat)
                  compound.structure.string  units.label  recorded.measurement
1  COc1cccc(C(=O)Nc2ccc(N3CCN(Cc4cccc(C#N)c4)CC3)cc2)c1-c1ccc(C(C)C)cc1           nM                    13
2  O=C(Nc1ccc(N2CCN(Cc3ccc[nH]3)CC2)cc1)c1ccccc1-c1ccc(C(F)(F)F)cc1           nM                    10
3  Cc1cccc(C(=O)Nc2ccc(N3CCN(Cc4cccc(C#N)c4)CC3)cc2)c1-c1ccc(C(C)C)cc1           nM                    12

-- ask Fill blank: measured IC50 of the molecule Cc1ccc(C(=O)Nc2ccc(N3CCN(Cc4ccc[nH]4)CC3)cc2)c(-c2ccc(C(C)C)cc2)c1 is ____.
-- reply 20

-- ask What does the record list as IC50 for Cc1ccc(C(=O)Nc2ccc(N3CCN(Cc4cccc(-c5nc(C)no5)c4)CC3)cc2)c(-c2ccc(C(C)C)cc2)c1 ?
-- reply 18
